Measured values drawn from the supplement of paper PMC10266784 for this set.

Consider the following variants; for each one, report its SGCB cell-surface expression functional score (log10).
B1: library; numbered along this chain (parent)
chain: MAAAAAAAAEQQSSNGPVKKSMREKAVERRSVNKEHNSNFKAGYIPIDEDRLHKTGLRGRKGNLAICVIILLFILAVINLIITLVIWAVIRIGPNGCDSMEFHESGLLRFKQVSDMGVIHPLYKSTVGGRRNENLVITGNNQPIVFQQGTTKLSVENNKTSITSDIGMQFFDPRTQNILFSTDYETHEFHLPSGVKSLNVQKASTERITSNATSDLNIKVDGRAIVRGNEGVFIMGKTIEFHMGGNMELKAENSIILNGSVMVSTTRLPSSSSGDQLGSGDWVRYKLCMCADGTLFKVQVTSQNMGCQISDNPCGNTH

Variants of: B1
Assay: SGCB cell-surface expression functional score (HA stain, bin4 vs bin1, normalised to synonymous) (log10 ratio); higher = more cell-surface SGCB (functional)

R284E = -1.26

The following variants each have a reported value; give each one's SGCB cell-surface expression functional score (log10).
1. N33M
2. A251L
3. L64G
4. V89L
5. G280N
6. G117N
7. I74E

Ans:
[0.11, -1.06, -0.2, -1.13, 0.37, 0.02, 0.75]
